Tested on: Rh41 cells
Assay: 3H-thymidine incorporation cell proliferation assay in parental Rh41 cells
Assay type: cell-based, human
Conditions: Homo sapiens, Rh41, read-out: Parental IC50 (nM)
readoutLabel: IC50
Could you give the number and then its unit, please?

IC50 measured on C[C@@]1(C(=O)Nc2ccc(F)nc2)CCCN1c1nc(Nc2cc(C3CC3)[nH]n2)c2cccn2n1 = 5 nM

====

System: SW403-807R cells
Assay: 3H-thymidine incorporation cell proliferation assay in SW403-807R cells
Format: cell-based
Conditions: SW403-807R cells, Table 9; read-out: IGF-1R inhibitor Compound (IC50)
readoutLabel: pIC50
On this scale, pIC50 is minus log10 of a concentration expressed in M (mol/L).

So for C[C@@]1(C(=O)Nc2ccc(F)nc2)CCCN1c1nc(Nc2cc(C3CC3)[nH]n2)c2cccn2n1 [BMS-754807] , the logged pIC50 turned out to be 6.01

====

Test system: SW403 cells
Assay: 3H-thymidine incorporation cell proliferation assay in SW403 cells
Format: cell-based
Details: Homo sapiens, SW-403; SW403 cells, Table 9; read-out: IGF-1R inhibitor Compound (IC50)
readoutLabel: IC50
Give me the value, and tack the unit on after it.

IC50 in this record for C[C@@]1(C(=O)Nc2ccc(F)nc2)CCCN1c1nc(Nc2cc(C3CC3)[nH]n2)c2cccn2n1 : 220 nM

====

Listed next: entries and their corresponding pIC50.
System: Rh41-807R cells
Test: 3H-thymidine incorporation cell proliferation assay in BMS-754807-resistant Rh41-807R cells
Type: cell-based, human
Conditions: Homo sapiens; Rh41-807R cells; PDGFR inhibitors, Table 7; read-out: Rh41-807R IC50
From the text: Human rhabdomyosarcoma cell line Rh41 was provided by Dr. Lee Helman and grown in RPMI medium plus GLUTAMAX® supplemented with 10% fetal bovine serum (FBS), 10 mmol/L HEPES, penicillin, and streptomycin.
# pIC50 = -log10(concentration in molar units)

CN1CCN(c2ccc3nc(-c4c(N)c5c(F)cccc5[nH]c4=O)[nH]c3c2)CC1 ... 6.14
CCN(CC)CCNC(=O)c1c(C)[nH]c(/C=C2\C(=O)Nc3ccc(F)cc32)c1C ... 5.99

So, CNC(=O)c1cc(Oc2ccc(NC(=O)Nc3ccc(Cl)c(C(F)(F)F)c3)cc2)ccn1 ? Its pIC50 was 6.09
